- Tested system: Alpha-2B adrenergic receptor (Homo sapiens, UniProt P18089)
- Sequence (P18089 whole entry): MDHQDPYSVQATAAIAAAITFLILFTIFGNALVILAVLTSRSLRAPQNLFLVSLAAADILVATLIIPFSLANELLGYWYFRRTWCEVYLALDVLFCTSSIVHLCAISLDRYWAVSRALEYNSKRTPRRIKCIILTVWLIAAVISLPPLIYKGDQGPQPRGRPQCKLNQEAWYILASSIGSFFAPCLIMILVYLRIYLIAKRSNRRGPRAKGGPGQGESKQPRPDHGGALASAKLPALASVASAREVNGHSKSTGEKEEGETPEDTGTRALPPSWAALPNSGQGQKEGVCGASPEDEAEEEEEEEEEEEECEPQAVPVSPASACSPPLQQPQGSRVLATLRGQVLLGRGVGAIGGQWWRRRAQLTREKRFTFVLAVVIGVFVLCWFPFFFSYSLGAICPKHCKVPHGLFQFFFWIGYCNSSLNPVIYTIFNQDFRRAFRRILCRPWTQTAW
- Method description: Binding affinity for human alpha-2B adrenoceptor from cultured Y-1 cells using [3H]rauwolscine
- Assay type: cell-based
pKi: −log10 of the molar value.

{"Given smiles": "Ic1c(NC2=NCCN2)ccc2nccnc12", "pKi": 7.37}

###

- Tested system: Alpha-1D adrenergic receptor (Homo sapiens)
- Sequence (P25100 whole entry): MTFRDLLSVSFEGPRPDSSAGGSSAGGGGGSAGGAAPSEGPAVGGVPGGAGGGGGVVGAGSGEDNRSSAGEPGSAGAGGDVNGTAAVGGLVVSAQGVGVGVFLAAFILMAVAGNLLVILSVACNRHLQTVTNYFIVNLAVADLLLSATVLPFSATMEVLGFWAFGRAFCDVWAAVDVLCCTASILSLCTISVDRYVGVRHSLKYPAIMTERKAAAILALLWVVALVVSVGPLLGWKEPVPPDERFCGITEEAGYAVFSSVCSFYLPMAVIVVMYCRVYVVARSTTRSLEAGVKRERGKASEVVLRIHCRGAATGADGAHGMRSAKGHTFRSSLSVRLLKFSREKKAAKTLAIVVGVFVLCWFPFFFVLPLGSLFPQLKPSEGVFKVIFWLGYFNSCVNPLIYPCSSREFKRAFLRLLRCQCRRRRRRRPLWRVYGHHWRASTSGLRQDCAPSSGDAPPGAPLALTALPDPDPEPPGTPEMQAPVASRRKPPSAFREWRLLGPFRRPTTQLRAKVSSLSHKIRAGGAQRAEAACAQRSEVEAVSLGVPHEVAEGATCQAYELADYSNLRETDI
Some molecules, each annotated with its measured Ki.
Reported endpoint: Ki

{"Molecule": "Brc1c(NC2=NCCO2)ccc2nccnc12", "Observed measurement": "102 µM"}
{"Molecule": "Brc1c(NC2=NCCN2)ccc2c1NCCN2", "Observed measurement": "2.69 µM"}
{"Molecule": "CC1CN=C(Nc2ccc3nccnc3c2Br)N1 (centres undefined)", "Observed measurement": "5.01 µM"}
{"Molecule": "Brc1c(NC2=NCCS2)ccc2nccnc12", "Observed measurement": "27.5 µM"}
